# key: entry, value: Maximum Activity compared to TSH
TESTED_SYSTEM: human TSHR (Homo sapiens, UniProt P16473)
Construct: expressed in transfected cells
Sequence (P16473 21-764): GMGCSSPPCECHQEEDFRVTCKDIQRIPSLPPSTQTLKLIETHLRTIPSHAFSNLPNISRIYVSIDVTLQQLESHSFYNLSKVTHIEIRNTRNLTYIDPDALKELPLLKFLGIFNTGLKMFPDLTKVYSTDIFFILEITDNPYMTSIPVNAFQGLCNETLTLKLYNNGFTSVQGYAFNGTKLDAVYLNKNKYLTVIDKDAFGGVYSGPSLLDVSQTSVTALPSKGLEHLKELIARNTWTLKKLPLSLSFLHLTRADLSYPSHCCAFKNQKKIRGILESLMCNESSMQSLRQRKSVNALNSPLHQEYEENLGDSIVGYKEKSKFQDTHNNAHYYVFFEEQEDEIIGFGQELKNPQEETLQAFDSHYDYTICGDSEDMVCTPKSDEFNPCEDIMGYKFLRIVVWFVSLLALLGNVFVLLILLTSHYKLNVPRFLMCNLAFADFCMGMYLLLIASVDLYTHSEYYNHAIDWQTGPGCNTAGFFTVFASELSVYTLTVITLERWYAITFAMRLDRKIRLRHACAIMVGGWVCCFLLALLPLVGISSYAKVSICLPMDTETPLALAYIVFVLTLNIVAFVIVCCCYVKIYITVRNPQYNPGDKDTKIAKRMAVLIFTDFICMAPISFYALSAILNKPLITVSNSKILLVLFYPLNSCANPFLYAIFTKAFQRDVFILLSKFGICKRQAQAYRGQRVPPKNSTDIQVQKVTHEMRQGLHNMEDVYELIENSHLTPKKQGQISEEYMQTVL
TEST_DESCRIPTION: Homogeneous Time Resolved Fluorescence (HTRF) cAMP assay, TSHR cell line
Type: cell-based
EXPERIMENTAL_CONTEXT: 100% activity = response of 30 mU/ml TSH, 0% = DMSO control; in %
Lab note: jot the number down without any unit.

MOLECULE | Maximum Activity compared to TSH
COc1ccc(CN(Cc2ccccc2)C(=O)c2ccccc2N)cc1COc1ccc(NC(C)=O)cc1 [Structure 100] | 190.35
COc1ccc(C2Nc3ccc(Cl)cc3C(=O)N2Cc2ccccc2)cc1COc1ccc(NC(C)=O)cc1 (stereo not drawn) [Structure 123] | 83.18

Summary: COc1ccc(C2Nc3ccccc3C(=O)N2Cc2cccc(Cl)c2)cc1COc1ccc(NC(C)=O)cc1 (stereo not drawn) [Structure 11] , human TSHR (Homo sapiens, UniProt P16473), Maximum Activity compared to TSH = 113.94

Bench note, human TSHR (Homo sapiens, UniProt P16473): entry COc1ccc(CN(Cc2ccccc2)C(=O)c2ccc(OC)cc2O)cc1 [Structure 124] , its Maximum Activity compared to TSH = 62.73

Record COc1ccc(C2Nc3ccccc3C(=O)N2Cc2ccco2)cc1COc1ccc(NC(C)=O)cc1 (stereo not drawn) [Structure 1] ; system human TSHR (Homo sapiens, UniProt P16473); Maximum Activity compared to TSH = 159.24

Response field Maximum Activity compared to TSH (human TSHR (Homo sapiens, UniProt P16473)) for item COc1ccc(C2Nc3ccccc3C(=O)N2Cc2ccco2)cc1COc1ccc(NC(C)=O)cc1 (stereo not drawn) [Structure 6] : 180.81

Per the reported human TSHR (Homo sapiens, UniProt P16473) data, COc1ccc(C2Nc3ccccc3C(=O)N2Cc2cccc(Cl)c2)cc1COc1ccc(NC(C)=O)cc1 (stereo not drawn) [Structure 44] has Maximum Activity compared to TSH of 105.58

The observed Maximum Activity compared to TSH for COc1ccc(C2Nc3ccccc3C(=O)N2Cc2ccccc2)cc1COc1ccc(NC(C)=O)cc1 (single isomer, unassigned) [Structure 55] when tested with human TSHR (Homo sapiens, UniProt P16473) stands at 194.91

Measured Maximum Activity compared to TSH (human TSHR (Homo sapiens, UniProt P16473)), entry COc1ccc(C2Nc3ccccc3C(=O)N2Cc2ccccc2)cc1COc1ccc(NC(C)=O)cc1 (single isomer, unassigned) [Structure 51] : 174.87
